Listed here are compounds together with their documented viability at 28.5 h, 5 µM.
# assay-remarks: in vitro
# Set-up: Viability of infected HeLa host cells, resazurin conversion, bulk resorufin fluorescence relative to DMSO
# run-conditions: human, hela cells; bulk resorufin, mean of 2
All answers are understood in %, so give the number only.

# count of solved cases: 2
CC(NC(C)(C)C)C(O)COc1ccc(Cl)c2c1C1CCC2CC1 (stereo not drawn) [CBK017752C]
95
CC(C)(CNS(=O)(=O)c1ccc(F)cc1)CNS(=O)(=O)c1ccc(F)cc1
111

Quick one: viability at 28.5 h, 5 µM of O=[N+]([O-])c1cccc(C(Nc2cccnc2)c2cc(Cl)c3cccnc3c2O)c1 (stereo not drawn) ?
88.9

###

# assay-remarks: in vitro
# run-conditions: human, hela cells, % viability
measured-parameter: viability at 28.5 h, 10 µM (%)
Entry rule: numbers only, all in %.

Please review the entries below; each comes with its answer.
Cc1cc(C)c2c(N)c(C(=O)C(C)(C)C)sc2n1
81.3
Cc1cccc(C2N3CCC4(CC3)c3[nH]c5ccccc5c3CCN24)n1 (centres unmarked)
90.5
Cc1ccccc1-c1noc(CNC(Cn2ccnc2)C(C)C)n1 (centres unmarked)
89.1
O=C(NCCNc1c(Cl)cccc1[N+](=O)[O-])c1cccc(Br)c1
91.4
CCC(=O)NC(Nc1cc(Cl)ccc1OC)(C(F)(F)F)C(F)(F)F
96.3
O=C(NCCCn1ccnc1)c1cccnc1-c1nc2ccccc2s1
90.5

I have this compound here, c1ccc(-c2n[nH]cc2-c2cncn2CCCN2CCCCC2)cc1 , and I need its recorded viability at 28.5 h, 10 µM.
90.4

So what's the measured viability at 28.5 h, 10 µM for this one? CCNc1cncc(-c2cncc(OC)c2)n1
91.9

Value lookup for viability at 28.5 h, 10 µM; key = CCOC(=O)CNS(=O)(=O)c1ccc(-c2ccccc2)cc1
99.5

Form field: reported viability at 28.5 h, 10 µM of Cc1cc(NC(=O)CN2CC(C)CC(C)C2)nc2c1c(=O)oc1ccccc12 (centres unmarked)
108

Need viability at 28.5 h, 10 µM, item CS(=O)(=O)N(CC(=O)NCc1ccccn1)c1cc(Cl)cc(Cl)c1
106

Given the compound O=C(NC(=O)C1CCN(CC2COc3ccccc3O2)CC1)Nc1ccccc1 (centres unmarked) , what is its reported viability at 28.5 h, 10 µM?
92.4

Requested field: viability at 28.5 h, 10 µM. Item: O=C(NCc1csc(-c2ccccc2)n1)C1CC=CCC1 (centres unmarked)
94.4

Looking for the measured viability at 28.5 h, 10 µM of CS(=O)(=O)N1C2CCC(C2)[C@H]1COc1cccc(C(F)(F)F)c1 (some centres unmarked) , can you help?
98.7

So what's the measured viability at 28.5 h, 10 µM for this one? CCOCCCn1c(SC(C)C#N)nc2ccc(Br)cc2c1=O (centres unmarked)
85.7

# input compound: O=C(O)c1ccc(Nc2ncnc3c2oc2ccccc23)cc1 [CBK269825C] ; wanted: its viability at 28.5 h, 10 µM
92

# viability at 28.5 h, 10 µM lookup, item O=C(CSc1ccc2nnc(-c3ccc(F)cc3)n2n1)N1CCCC1
85.3

# viability at 28.5 h, 10 µM lookup, item CS(=O)(=O)N1C[C@@H]2CCCCN(Cc3cccc(F)c3)[C@@H]2C1
103

Look at this compound and give its reported viability at 28.5 h, 10 µM. COc1cccc(C2C(C(=O)c3ccc(Br)cc3)=C(O)C(=O)N2CCCN2CCOCC2)c1 (centres unmarked)
103

# query: viability at 28.5 h, 10 µM of entry Cc1ccc(CCC(=O)N(CC(=O)O)C2CCOCC2)c(C)c1
91.6

Returns the measured viability at 28.5 h, 10 µM for the input compound. Input: O=C1NCC(C(=O)N2CCC3(CC2)CC(=O)c2cc(Br)ccc2O3)N1 (centres unmarked)
87.7

Could you share which viability at 28.5 h, 10 µM value was measured for O=C(c1ccoc1)N1CCC2(CCCN(Cc3c(F)cccc3F)C2)C1 (centres unmarked) ?
95.1

Give the measured viability at 28.5 h, 10 µM of O=C(N[C@H]1CCN2C(=O)c3cc(-c4ccccc4F)ccc3NC(=O)[C@@H]2C1)c1cnccn1 .
118

Quick one: viability at 28.5 h, 10 µM of CC(C)Cn1c(CN2CCOCC2)nc2c1c(=O)n(C)c(=O)n2C ?
91.3

For the compound shown here, CC1(NC(=O)c2cccc(OCCN3CCCC3=O)c2)CCC1 , give the reported viability at 28.5 h, 10 µM.
92.8

For Cc1c(C)[n+]([O-])c2cc(N3CCN(C)CC3)c(Cl)cc2[n+]1[O-] , what is its reported viability at 28.5 h, 10 µM?
96.3

Tell me the measured viability at 28.5 h, 10 µM of Cc1ccc(S(=O)(=O)Nc2ccccn2)c(C)c1C , please.
90

# lookup: viability at 28.5 h, 10 µM of NC(=O)CN1CCCC2(CCCCc3ccccc3OCC(=O)NC2)C1 (centres unmarked)
106

Requested field: viability at 28.5 h, 10 µM. Item: Clc1ccccc1-c1nnc(Cn2c3ccc(Br)cc3c3nc4ccccc4nc32)o1
88.5
